# System: IFNγ
# assay explanation: Cytokine assay: IFNγ release from PHA-L stimulated human PBMCs
# Type: cell-based
# test parameters: Homo sapiens, PBMC
pIC50: −log10 of the molar value.
observable: pIC50

Look over these answered cases.
CCCOc1cc(-c2nc(COC)cc(C3COB(O)C3)n2)ccc1OC (single isomer, unassigned) [Example 103] : 9.12
CCCOc1cc(-c2cccc(C3COB(O)C3C)n2)ccc1OC (stereo not shown) : 6.68
CCCOc1c(OC)ccc(-c2cncc(C3COB(O)C3)c2)c1OC (stereo not shown) [Example 167] : 8.95
CCOc1c(OC)ccc(-c2cncc(C3COB(O)C3)c2)c1C(F)(F)F (stereo not shown) [Example 94] : 8.41
COc1ccc(-c2cncc(C3COB(O)C3)c2)cc1OC1CSC1 (stereo not shown) : 8.82
COc1ccc(-c2cccc(C3COB(O)C3)c2)c(C#N)c1OC (stereo not shown) : 8.07
CCCOc1cc(-c2cncc(C3COB(O)C3)c2)c(F)cc1OC (stereo not shown) [Example 49] : 8.49
COc1ccc(-c2cncc(C3COB(O)C3)n2)cc1OC1CCCC1 (stereo not shown) [Example 125] : 8.61
CCCOc1cc(-c2cc(C)cc(C3COB(O)C3)n2)ccc1OC (stereo not shown) : 7.99
CCOc1cc(-c2cncc(C3=CB(O)OC3)c2)ccc1OC : 8.54

I. CCCOc1cc(-c2cccc(C3CCOB(O)C3)n2)ccc1OC (stereo not shown)
II. COc1ccc(-c2cncc(C3COB(O)C3)c2)c(C#N)c1OC (stereo not shown)
// which entry reports the smaller pIC50, I or II ? Label of pick, please.
I

I. COc1ccc(-c2cncc(C3COB(O)C3)c2)cc1OC1CC1 (stereo not shown)
II. CCCOc1cc(-c2cc(CO)nc(C3COB(O)C3)n2)ccc1OC (stereo not shown)
Compare I and II by numeric pIC50 and name the larger one. Label of pick, please.
I
(I: 8.90, II: 8.31)

I. CCCOc1cc(-c2nc(C3COB(O)C3)cc(C(F)(F)F)n2)ccc1OC (single isomer, unassigned)
II. CCCOc1cc(-c2cncc(C3COB(O)C3)c2)ccc1OC(F)F (stereo not shown) [Example 50]
Compare I and II by numeric pIC50 and name the larger one. Label of pick, please.
I
